This listing pairs molecules with measured pIC50.
TEST_SYSTEM: GID4 (Uniprot ID: Q81VV7, residues 124-289) (Homo sapiens, UniProt Q8IVV7)
Construct: GID4 (Uniprot ID: Q81VV7, residues 124-289)
PROTOCOL_TEXT: GID4 competitive binding assay (AlphaScreen, GID4/degron peptide PGLW)
STUDY_CONDITIONS: 24 nM GID4, 48 nM biotinylated degron peptide PGLW, 4° C., read-out: IC50 (Inhibition of GID4/Degron binding by test compounds)
pIC50: −log10 of the molar value.

MOLECULE: CN(C)CCCNC(=O)Cc1ccc(-c2cc(O)c3ncccc3c2)cc1
pIC50: > 6.30
--
MOLECULE: Nc1nccc2ccc(-c3cccc(C(=O)N4CCCC4)c3)cc12
pIC50: 5.30 to 6.30
--
MOLECULE: CNc1cc(N2CCCC(n3nc4ccccc4n3)C2)nc(N)n1 (centres unmarked)
pIC50: < 5.30
--
MOLECULE: CC(C)c1cc(N2CCNC(c3cc(N4CC(CO)C4)ccc3Br)C2)nc(N)n1 (single isomer, unassigned) [Compound 30]
pIC50: > 6.30
--
MOLECULE: Nc1cc(N2CCNC(c3ccccc3C(F)(F)F)C2)nc(N)n1 (centres unmarked)
pIC50: > 6.30
--
MOLECULE: CN(C)CCCNC(=O)c1ncc(-c2cc(O)c3ncccc3c2)s1
pIC50: > 6.30
--
MOLECULE: CC(C)c1nc(N)cc(N2CCOC(c3ccccc3Br)C2)n1 (single isomer, unassigned)
pIC50: 5.30 to 6.30
--
MOLECULE: CC(C)c1cc(Nc2cccc(CC3CCNC3=O)c2)nc(N)n1 (centres unmarked)
pIC50: < 5.30
--
MOLECULE: Nc1cc(N2CCC=C(c3ncn4ccccc34)C2)nc(N)n1
pIC50: 5.30 to 6.30
--
MOLECULE: Nc1cc(N2CCOC(c3ccccc3Br)C2)nc(N)n1 (racemic)
pIC50: 5.30 to 6.30
--
MOLECULE: CC(C)c1cc(N2CC[C@@H](F)[C@@H](c3ncn4ccccc34)C2)nc(N)n1 (racemic)
pIC50: < 5.30
--
MOLECULE: CC(C)c1cc(N2CCCC(c3cnc4ccccn34)C2)ncn1 (single isomer, unassigned)
pIC50: < 5.30
--
MOLECULE: CC(C)c1cc(N2CCC=C(c3ccccc3Br)C2)nc(N)n1
pIC50: < 5.30
--
MOLECULE: CCCNC(=O)c1ccc(-c2cc(O)c3ncccc3c2)cc1
pIC50: 5.30 to 6.30
--
MOLECULE: Nc1nc2c(c(N3CCCC(c4ccn[nH]4)C3)n1)COCC2 (centres unmarked)
pIC50: < 5.30
--
MOLECULE: CN(C)CCCNC(=O)c1n[nH]c2ccc(-c3ccc4ncnc(N)c4c3)cc12
pIC50: 5.30 to 6.30
--
MOLECULE: CC(=O)N1CCN(c2cc(N)nc(N)n2)C[C@@H]1c1ccccc1Br (stereo in doubt)
pIC50: < 5.30
